Could you please report measured Bliss excess for the items listed next?
System: COR-L311 (Small Cell Lung Carcinoma)
assay_explanation: Bliss excess, mean over the matrix (fraction); higher = more synergy;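 further: after 72 h of two-drug dosing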
Enter the number alone.

Reported Bliss excess of Cc1cc2ncnn2cc1Nc1ncc2c(n1)n(C1CCOCC1)c(=O)n2C [AZD7648] + C[C@@H]1COCCN1C2=NC(=NC(=C2)C3(CC3)[S@](=N)(=O)C)C4=C5C=CNC5=NC=C4 [AZD6738] (first compound max 10 µM, 7x7, partner max 10 µM) : -0.016

Form field Bliss excess, entry C=CCn1c(=O)c2cnc(Nc3ccc(N4CCN(C)CC4)cc3)nc2n1-c1cccc(C(C)(C)O)n1 [AZD1775] + C[C@@H]1COCCN1C2=NC(=NC(=C2)C3(CC3)[S@](=N)(=O)C)C4=C5C=CNC5=NC=C4 [AZD6738] (first compound max 1 µM, partner max 10 µM) : 0.0133

* * *

Tested on: 8-MG-BA (Glioblastoma)
assay_explanation: Bliss excess, mean over the matrix (fraction); higher = more synergy
experimental_endpoint: Bliss excess
Form: value (number only, do not type unit).

Per the record, COc1cccc2c1C(=O)c1c(O)c3c(c(O)c1C2=O)C[C@@](O)(C(=O)CO)C[C@@H]3O[C@H]1C[C@H](N)[C@H](O)[C@H](C)O1 [Doxorubicin] + Cc1cc2ncnn2cc1Nc1ncc2c(n1)n(C1CCOCC1)c(=O)n2C [AZD7648] (first compound max 1 µM, 7x7, partner max 10 µM) has Bliss excess of 0.0675

Form: compound = COc1nnc2ccc(N3CCC(c4ccc(OCCN5CCN(C)C(=O)[C@H]5C)cc4)CC3)nn12 [AZD5153] + CC1(C)CCC(CN2CCN(c3ccc(C(=O)NS(=O)(=O)c4ccc(NCC5CCOCC5)c([N+](=O)[O-])c4)c(Oc4cnc5[nH]ccc5c4)c3)CC2)=C(c2ccc(Cl)cc2)C1 [Venetoclax] (first compound max 1 µM, 7x7, partner max 1 µM) ; Bliss excess = -0.0116

Bliss excess recorded for this compound, CC1(C)CCC(CN2CCN(c3ccc(C(=O)NS(=O)(=O)c4ccc(NCC5CCOCC5)c([N+](=O)[O-])c4)c(Oc4cnc5[nH]ccc5c4)c3)CC2)=C(c2ccc(Cl)cc2)C1 [Venetoclax] + COc1cc(Nc2ncc3c(n2)-c2ccc(Cl)cc2C(c2c(F)cccc2OC)=NC3)ccc1C(=O)O [Alisertib] (first compound max 1 µM, 7x7, partner max 10 µM) , is 0.0038

* * *

Test system: NCI-H2141 (Small Cell Lung Carcinoma)
assay_explanation: Bliss excess, mean over the matrix (fraction); higher = more synergy
experimental_endpoint: Bliss excess
Please respond with just the number, no unit label.

Per the record, CC1(C)CCC(CN2CCN(c3ccc(C(=O)NS(=O)(=O)c4ccc(NCC5CCOCC5)c([N+](=O)[O-])c4)c(Oc4cnc5[nH]ccc5c4)c3)CC2)=C(c2ccc(Cl)cc2)C1 [Venetoclax] + COc1cc(Nc2ncc3c(n2)-c2ccc(Cl)cc2C(c2c(F)cccc2OC)=NC3)ccc1C(=O)O [Alisertib] (first compound max 1 µM, 7x7, partner max 10 µM) has Bliss excess of 0.171

Lab note: measured Bliss excess of COc1cccc(OCCCN)c1-c1cc(Nc2cnc(C#N)cn2)n[nH]1 [Prexasertib] + CN(C)CCCOc1ccc(-c2ccc3ncc4c(c3c2)n(C2CCOCC2)c(=O)n4C)cn1 [AZD0156] (first compound max 1 µM, 7x7, partner max 1 µM) was 0.009

Briefly, Bliss excess measured for CC(=O)Nc1cccc(-n2c(=O)n(C3CC3)c(=O)c3c(Nc4ccc(I)cc4F)n(C)c(=O)c(C)c32)c1 [Trametinib] + Cc1nc(-c2cn3c(n2)-c2ccc(-c4cnn(C(C)(C)C(N)=O)c4)cc2OCC3)n(C(C)C)n1 [Taselisib] (first compound max 1 µM, 7x7, partner max 10 µM) : -0.0299
